The reported numbers originate from the RNAGym collection of RNA variant scans (doi:10.7554/elife.80360).

B1: HDV Ribozyme (parent)
chain: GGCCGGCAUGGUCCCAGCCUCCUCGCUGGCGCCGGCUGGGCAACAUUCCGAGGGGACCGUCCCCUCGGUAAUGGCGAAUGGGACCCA

variants of: B1; experiment: self-cleavage, relative activity (ratio to wild type); higher = more cleavage; co-transcriptional
Classify by self-cleavage. Ranges: I: < 0.1; II: ≥ 0.1 and < 0.6; III: ≥ 0.6

1) C24A C41G ... II
2) G6C A77C ... II
3) U37A G38C ... I
4) C15U C75U ... II
5) C13U G25A ... II

Q) Lab note: which band did U20C C64U land in?
A) II

Q) Lab note: which band did C21U U60G land in?
A) II

Q) Lab note: which band did U27A A71U land in?
A) III
